Each entry below carries its recorded IC50, inhibition of C3b deposition.
TGT: MASP-2 in human serum (human, UniProt O00187 16-686)
Sequence (O00187 16-686 limits assumed): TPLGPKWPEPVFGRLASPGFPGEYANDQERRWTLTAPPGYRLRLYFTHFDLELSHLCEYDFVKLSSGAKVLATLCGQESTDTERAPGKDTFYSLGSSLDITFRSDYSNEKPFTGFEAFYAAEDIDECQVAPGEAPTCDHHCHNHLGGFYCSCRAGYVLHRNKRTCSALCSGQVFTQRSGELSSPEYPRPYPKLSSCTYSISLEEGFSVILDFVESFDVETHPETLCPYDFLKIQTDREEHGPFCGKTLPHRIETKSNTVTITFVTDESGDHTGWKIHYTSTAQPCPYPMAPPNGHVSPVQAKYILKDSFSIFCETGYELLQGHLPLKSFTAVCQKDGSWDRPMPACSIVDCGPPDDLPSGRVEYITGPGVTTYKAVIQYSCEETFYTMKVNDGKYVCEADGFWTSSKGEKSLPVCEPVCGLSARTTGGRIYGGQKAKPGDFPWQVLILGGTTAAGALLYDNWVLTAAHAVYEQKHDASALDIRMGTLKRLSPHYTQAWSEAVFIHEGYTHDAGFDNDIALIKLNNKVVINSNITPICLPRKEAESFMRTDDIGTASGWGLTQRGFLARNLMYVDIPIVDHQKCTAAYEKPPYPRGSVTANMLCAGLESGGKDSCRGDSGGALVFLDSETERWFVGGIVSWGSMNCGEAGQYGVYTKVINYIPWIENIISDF
PROTOCOL DETAILS: cell-based or functional assay

Some binders with known IC50, inhibition of C3b deposition results, for comparison:
INSERT INTO assay_data (binder, reading) VALUES
  ('h16B11 H1K6 (antibody, V domains shown) VH: QMQLQESGPGLVKPSETLSLTCTVSGYSITSDYAWNWIRQPPGKGLEWIGYISYSGRTSYNPSLKSRVTISRDTSKNQFSLKLSSVTAADTAVYYCARHYGDYWGQGTLVTVSS VL: EIVMTQSPATLSVSPGERATLSCRASQNVGTNVAWYQQKPGQAPRALIYSASYRQSGIPARFSGSGSGTEFTLTISSLQSEDFAVYFCQQFNTNPLTFGGGTKVEIK', '0.018 nM'),
  ('h16B11 H3K1 (antibody, V domains shown) VH: QLQLQESGPGLVKPSETLSLTCTVSGYSITSDYAWNWIRQPPGKGLEWIGYISYSGRTSYNPSLKSRVTISVDTSKNQFSLKLSSVTAADTAVYYCARHYGDYWGQGTLVTVSS VL: DIQMTQSPSSLSASVGDRVTITCRASQNVGTNVAWYQQKPGKAPKALIYSASYRESGVPSRFSGSGSGTDFTLTISSLQPEDFATYFCQQFNTNPLTFGGGTKVEIK', '0.06 nM');

Shift focus to the following entry.
Please look up its IC50, inhibition of C3b deposition: h16B11 H3K3 (antibody, V domains shown) VH: QLQLQESGPGLVKPSETLSLTCTVSGYSITSDYAWNWIRQPPGKGLEWIGYISYSGRTSYNPSLKSRVTISVDTSKNQFSLKLSSVTAADTAVYYCARHYGDYWGQGTLVTVSS VL: DIQMTQSPSSLSASVGDRVTITCRASQNVGTNVAWYQQKPGKAPKALIYSASYRQSGVPSRFSGSGSGTDFTLTISSLQPEDFATYFCQQFNTNPLTFGGGTKVEIK
0.112 nM
